The entries below are paired with their reported bioavailability.
experiment: Oral bioavailability in rat at 5 mg/kg oral & 2 mg/kg iv dose; format: ADME, organism-based; conditions: in vivo
Your answer is read as %, so omit the unit and give the number.

If you can, please state the reported bioavailability value of `O=C(O)C[C@@H]1c2ccccc2C[C@H]1NC(=O)c1cc2cc(Cl)c(F)cc2[nH]1` .
65

Would you kindly share the measured bioavailability for `O=C(O)CC(=O)N[C@@H]1c2ccccc2C[C@H]1NC(=O)c1cc2sc(Cl)c(Cl)c2[nH]1` ?
2

Which bioavailability value is on record for `O=C(O)CCO[C@@H]1c2ccccc2C[C@H]1NC(=O)c1cc2sc(Cl)c(Cl)c2[nH]1` ?
55

Any idea what bioavailability was measured for `O=C(O)CCCS(=O)(=O)C[C@@H]1c2ccccc2C[C@H]1NC(=O)c1cc2sc(Cl)c(Cl)c2[nH]1` ?
2
